Value source: paper PMC12948223

- test-summary: Pharmacokinetic study in ICR mice
- Type: in vivo
- measurement-parameters: mouse; male ICR mice, IP, 30 mg/kg, plasma
observation-type: AUC(0-inf) (ng·h/mL)
Respond with the bare value in ng·h/mL.

Query: Reported AUC(0-inf), compound COc1ccc(-c2nc(-c3cc(C(F)(F)F)cc(C(F)(F)F)c3)n(Cc3ccc(C(=O)NCCOCCOCCOCCn4cc(COc5ccc(N(C(=O)CCl)C(C(=O)NCCc6ccccc6)c6cccs6)cc5Cl)nn4)cc3)c2-c2ccc(OC)cc2)cc1 (stereo not shown) [GDAz-3] : ____
Reply: 3140

###

- System: HT1080 cells
- test-summary: Cell viability CCK-8 assay
- Format: cell-based, human
- measurement-parameters: Homo sapiens, HT-1080, CCK-8, 48 h, read-out: IC50 (cytotoxicity)
observation-type: pIC50
Expect pIC50 as a plain number equal to -log10 of the molar concentration.

molecule	observation-type	observed-measurement
COc1ccc(-c2nc(-c3cc(C(F)(F)F)cc(C(F)(F)F)c3)n(Cc3ccc(C(=O)NCCOCCOCCn4cc(COc5ccc(N(C(=O)CCl)C(C(=O)NCCc6ccccc6)c6cccs6)cc5Cl)nn4)cc3)c2-c2ccc(OC)cc2)cc1 (centres unmarked)	pIC50	6.41

Switching to the query record.
Query: Reported pIC50, molecule COc1ccc(-c2nc(-c3ccncc3)n(Cc3ccc(C(=O)NCCOCCOCCOCCn4cc(COc5ccc(N(C(=O)CCl)C(C(=O)NCCc6ccccc6)c6cccs6)cc5Cl)nn4)cc3)c2-c2ccc(OC)cc2)cc1 (centres unmarked) : ____
Reply: 6.24
